B1: glmS ribozyme (parent)
chain: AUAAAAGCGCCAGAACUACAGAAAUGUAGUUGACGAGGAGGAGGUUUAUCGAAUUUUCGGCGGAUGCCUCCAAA

Variants of: B1
Assay Procedure: self-cleavage kobs at 640 uM GlcN6P; higher = faster cleavage; RNA array
Test Settings: with glucosamine-6-phosphate
Fewer inactive variants are shown than the library holds.
Measured self-cleavage kobs at 640 uM GlcN6P, listed per entry for reference.
Value Type: self-cleavage kobs at 640 uM GlcN6P (s⁻¹)

C16A U69C    9.93e-05
C11U A14G A39C    0.000206
U30C A39U    6.71e-05
G7U A53G U69G    0.000822
U69G C71G    9.05e-05
A39U G43A C67G    0.000465
U46A C70U    0.00135
G13U U54A    0.000283
A39G U65C    0.000513
U47G C68A    0.000121
A42C G66A    0.000125
C16G U31G U54G    0.000146
U55C G66U    0.000297
C11A C67G    8.75e-05
A14C A39G C70U    0.000886
A39U U54G U55G    0.00525
A14U G29U    0.000104
C16G C67A    0.000169
A14U A42G    0.00347
A39U A42U    0.00223
G29C G44C C67G    0.000127
A39U C68U    0.00309
A48U C67U    5.32e-05
G41A A53U    0.000358
A52U A53G    3.11e-05
A14C C71A    0.000194
C10A C61G A64G C68G    9.09e-05
A42U U55A    7.19e-05
U69G C70G    0.000255
C34U C50G    0.000831
G7A G38A G63U C70G    0.000112
U30A U49A C68A C71G    7.12e-05
C11U U30C C71A    0.000112
U30C A53G    9.02e-05
U55A U65C    0.0002
C16A G32A C70G    7.42e-05
G29U A53G C67G    0.000108
A15C A39G    0.00224
A39C U54C    0.00125
A12C A52U C71U    4.93e-05
